# EXPERIMENTAL CONTEXT: in n-pentanol, 318.15 K
VALUE KIND: solubility (mole fraction)
Output spec: single numeric token, no unit.

Ask | Given OCC1(O)OC[C@@H](O)[C@@H](O)[C@H]1O (stereo partly specified) , state its recorded solubility (mole fraction).
Reply | 0.00561

----------
# EXPERIMENTAL CONTEXT: in 2-butanone, 308.15 K
VALUE KIND: solubility (mole fraction)

Ask | Given OCC1(O)OC[C@@H](O)[C@@H](O)[C@H]1O (stereo partly specified) , state its recorded solubility (mole fraction).
Reply | 0.00264

----------
# EXPERIMENTAL CONTEXT: in n-butyl acetate, 323.15 K
VALUE KIND: solubility (mole fraction)
Output spec: single numeric token, no unit.

Ask | Given OCC1(O)OC[C@@H](O)[C@@H](O)[C@H]1O (stereo partly specified) , state its recorded solubility (mole fraction).
Reply | 0.002

----------
# EXPERIMENTAL CONTEXT: in ethyl formate, 323.15 K
VALUE KIND: solubility (mole fraction)
Output spec: single numeric token, no unit.

Ask | Given OCC1(O)OC[C@@H](O)[C@@H](O)[C@H]1O (stereo partly specified) , state its recorded solubility (mole fraction).
Reply | 0.00346

----------
# EXPERIMENTAL CONTEXT: in sec-butanol, 323.15 K
VALUE KIND: solubility (mole fraction)
Output spec: single numeric token, no unit.

Ask | Given OCC1(O)OC[C@@H](O)[C@@H](O)[C@H]1O (stereo partly specified) , state its recorded solubility (mole fraction).
Reply | 0.0135

----------
# EXPERIMENTAL CONTEXT: in n-butyl acetate, 293.15 K
VALUE KIND: solubility (mole fraction)

Ask | Given OCC1(O)OC[C@@H](O)[C@@H](O)[C@H]1O (stereo partly specified) , state its recorded solubility (mole fraction).
Reply | 0.000443

----------
# EXPERIMENTAL CONTEXT: in acetonitrile, 293.15 K
VALUE KIND: solubility (mole fraction)
Output spec: single numeric token, no unit.

Ask | Given OCC1(O)OC[C@@H](O)[C@@H](O)[C@H]1O (stereo partly specified) , state its recorded solubility (mole fraction).
Reply | 0.000367

----------
# EXPERIMENTAL CONTEXT: in n-butyl acetate, 283.15 K
VALUE KIND: solubility (mole fraction)
Output spec: single numeric token, no unit.

Ask | Given OCC1(O)OC[C@@H](O)[C@@H](O)[C@H]1O (stereo partly specified) , state its recorded solubility (mole fraction).
Reply | 0.000243

----------
# EXPERIMENTAL CONTEXT: in n-propanol, 318.15 K
VALUE KIND: solubility (mole fraction)
Output spec: single numeric token, no unit.

Ask | Given OCC1(O)OC[C@@H](O)[C@@H](O)[C@H]1O (stereo partly specified) , state its recorded solubility (mole fraction).
Reply | 0.00956

----------
# EXPERIMENTAL CONTEXT: in acetonitrile, 298.15 K
VALUE KIND: solubility (mole fraction)
Output spec: single numeric token, no unit.

Ask | Given OCC1(O)OC[C@@H](O)[C@@H](O)[C@H]1O (stereo partly specified) , state its recorded solubility (mole fraction).
Reply | 0.00047

----------
# EXPERIMENTAL CONTEXT: in n-pentanol, 293.15 K
VALUE KIND: solubility (mole fraction)

Ask | Given OCC1(O)OC[C@@H](O)[C@@H](O)[C@H]1O (stereo partly specified) , state its recorded solubility (mole fraction).
Reply | 0.0017

----------
# EXPERIMENTAL CONTEXT: in n-butyl acetate, 313.15 K
VALUE KIND: solubility (mole fraction)
Output spec: single numeric token, no unit.

Ask | Given OCC1(O)OC[C@@H](O)[C@@H](O)[C@H]1O (stereo partly specified) , state its recorded solubility (mole fraction).
Reply | 0.00131

----------
# EXPERIMENTAL CONTEXT: in n-propanol, 298.15 K
VALUE KIND: solubility (mole fraction)

Ask | Given OCC1(O)OC[C@@H](O)[C@@H](O)[C@H]1O (stereo partly specified) , state its recorded solubility (mole fraction).
Reply | 0.00335

----------
# EXPERIMENTAL CONTEXT: in n-hexanol, 313.15 K
VALUE KIND: solubility (mole fraction)
Output spec: single numeric token, no unit.

Ask | Given OCC1(O)OC[C@@H](O)[C@@H](O)[C@H]1O (stereo partly specified) , state its recorded solubility (mole fraction).
Reply | 0.004

----------
# EXPERIMENTAL CONTEXT: in ethyl acetate, 288.15 K
VALUE KIND: solubility (mole fraction)
Output spec: single numeric token, no unit.

Ask | Given OCC1(O)OC[C@@H](O)[C@@H](O)[C@H]1O (stereo partly specified) , state its recorded solubility (mole fraction).
Reply | 0.000993

----------
# EXPERIMENTAL CONTEXT: in acetone, 283.15 K
VALUE KIND: solubility (mole fraction)
Output spec: single numeric token, no unit.

Ask | Given OCC1(O)OC[C@@H](O)[C@@H](O)[C@H]1O (stereo partly specified) , state its recorded solubility (mole fraction).
Reply | 0.000606

----------
# EXPERIMENTAL CONTEXT: in methanol, 303.15 K
VALUE KIND: solubility (mole fraction)
Output spec: single numeric token, no unit.

Ask | Given OCC1(O)OC[C@@H](O)[C@@H](O)[C@H]1O (stereo partly specified) , state its recorded solubility (mole fraction).
Reply | 0.0356

----------
# EXPERIMENTAL CONTEXT: in n-pentanol, 313.15 K
VALUE KIND: solubility (mole fraction)
Output spec: single numeric token, no unit.

Ask | Given OCC1(O)OC[C@@H](O)[C@@H](O)[C@H]1O (stereo partly specified) , state its recorded solubility (mole fraction).
Reply | 0.00448

----------
# EXPERIMENTAL CONTEXT: in methanol, 298.15 K
VALUE KIND: solubility (mole fraction)
Output spec: single numeric token, no unit.

Ask | Given OCC1(O)OC[C@@H](O)[C@@H](O)[C@H]1O (stereo partly specified) , state its recorded solubility (mole fraction).
Reply | 0.0273

----------
# EXPERIMENTAL CONTEXT: in n-butanol, 313.15 K
VALUE KIND: solubility (mole fraction)
Output spec: single numeric token, no unit.

Ask | Given OCC1(O)OC[C@@H](O)[C@@H](O)[C@H]1O (stereo partly specified) , state its recorded solubility (mole fraction).
Reply | 0.00579

----------
# EXPERIMENTAL CONTEXT: in isopropanol, 323.15 K
VALUE KIND: solubility (mole fraction)
Output spec: single numeric token, no unit.

Ask | Given OCC1(O)OC[C@@H](O)[C@@H](O)[C@H]1O (stereo partly specified) , state its recorded solubility (mole fraction).
Reply | 0.0143

----------
# EXPERIMENTAL CONTEXT: in acetonitrile, 308.15 K
VALUE KIND: solubility (mole fraction)

Ask | Given OCC1(O)OC[C@@H](O)[C@@H](O)[C@H]1O (stereo partly specified) , state its recorded solubility (mole fraction).
Reply | 0.000861

----------
# EXPERIMENTAL CONTEXT: in n-hexanol, 298.15 K
VALUE KIND: solubility (mole fraction)
Output spec: single numeric token, no unit.

Ask | Given OCC1(O)OC[C@@H](O)[C@@H](O)[C@H]1O (stereo partly specified) , state its recorded solubility (mole fraction).
Reply | 0.00143

----------
# EXPERIMENTAL CONTEXT: in ethanol, 303.15 K
VALUE KIND: solubility (mole fraction)
Output spec: single numeric token, no unit.

Ask | Given OCC1(O)OC[C@@H](O)[C@@H](O)[C@H]1O (stereo partly specified) , state its recorded solubility (mole fraction).
Reply | 0.00899

----------
# EXPERIMENTAL CONTEXT: in n-propanol, 303.15 K
VALUE KIND: solubility (mole fraction)
Output spec: single numeric token, no unit.

Ask | Given OCC1(O)OC[C@@H](O)[C@@H](O)[C@H]1O (stereo partly specified) , state its recorded solubility (mole fraction).
Reply | 0.00446

----------
# EXPERIMENTAL CONTEXT: in ethanol, 283.15 K
VALUE KIND: solubility (mole fraction)
Output spec: single numeric token, no unit.

Ask | Given OCC1(O)OC[C@@H](O)[C@@H](O)[C@H]1O (stereo partly specified) , state its recorded solubility (mole fraction).
Reply | 0.00369

----------
# EXPERIMENTAL CONTEXT: in methanol, 288.15 K
VALUE KIND: solubility (mole fraction)
Output spec: single numeric token, no unit.

Ask | Given OCC1(O)OC[C@@H](O)[C@@H](O)[C@H]1O (stereo partly specified) , state its recorded solubility (mole fraction).
Reply | 0.0178

----------
# EXPERIMENTAL CONTEXT: in n-pentanol, 323.15 K
VALUE KIND: solubility (mole fraction)

Ask | Given OCC1(O)OC[C@@H](O)[C@@H](O)[C@H]1O (stereo partly specified) , state its recorded solubility (mole fraction).
Reply | 0.00721

Where do the numbers come from? From BigSolDB 2.1.
